FYI, the data here is from ChEMBL document CHEMBL1828559.

Exercise: for every item that follows, state its recorded pKd.
- System under test: UniProt:P07550
- Method notes: Antagonist activity at human beta-2 adrenergic receptor expressed in salbutamol-stimulated CHO-K1 cells assessed as CRE-SPAP level by […]
- Assay type: functional, cell-based
Expect pKd as a plain number equal to -log10 of the molar concentration.

Incoming: Tell us which pKd value is on record for O=C(CCCCCNC(=O)COc1ccc(/C=C/c2ccc3n2[B-](F)(F)[N+]2=C(c4cccs4)C=CC2=C3)cc1)NCCNC[C@H](O)COc1cccc2ccccc12
Outgoing: 9.37

Incoming: Look up and state reported pKd for C=CCc1ccccc1OCC(O)CNCCNC(=O)CCCCCNC(=O)COc1ccc(/C=C/c2ccc3n2[B-](F)(F)[N+]2=C(c4cccs4)C=CC2=C3)cc1 (racemic)
Outgoing: 8.80

Incoming: Quickly give me recorded pKd for O=C(CCCCCNC(=O)COc1ccc(/C=C/c2ccc3n2[B-](F)(F)[N+]2=C(c4cccs4)C=CC2=C3)cc1)NCCNCC(O)COc1cccc2ccccc12 (racemic)
Outgoing: 8.59

Incoming: State, in one line, measured pKd of O=C(CCCCCNC(=O)COc1ccc(/C=C/c2ccc3n2[B-](F)(F)[N+]2=C(c4cccs4)C=CC2=C3)cc1)NCCNCC(O)COc1cccc2[nH]ccc12 (racemic)
Outgoing: 7.52

Incoming: Give pKd for the following molecule: O=C(CCCCCNC(=O)COc1ccc(/C=C/c2ccc3n2[B-](F)(F)[N+]2=C(c4cccs4)C=CC2=C3)cc1)NCCCCCCCCNC[C@H](O)COc1cccc2ccccc12
Outgoing: 8.76

Incoming: For the molecule O=C(CCCCCNC(=O)COc1ccc(/C=C/c2ccc3n2[B-](F)(F)[N+]2=C(c4cccs4)C=CC2=C3)cc1)NCCCCNC[C@H](O)COc1cccc2ccccc12 , give its reported pKd.
Outgoing: 9.56

---

- System under test: Beta-2 adrenergic receptor (Homo sapiens)
- Method notes: Displacement of [3H]-CGP 12177 from human beta-2 adrenergic receptor expressed in CHOK1 cells
- Assay type: cell-based, CHO-K1
Please go through the items and note down their pKd.
Kindly note that pKd refers to -log10 of the concentration in mol/L and answer with the value alone.

Incoming: For O=C(CCCCCNC(=O)COc1ccc(/C=C/c2ccc3n2[B-](F)(F)[N+]2=C(c4cccs4)C=CC2=C3)cc1)NCCOCCOCCNCC(O)COc1cccc2ccccc12 (racemic) , write its pKd.
Outgoing: 8.48

Incoming: Return reported pKd. Input compound: O=C(CCCCCNC(=O)COc1ccc(/C=C/c2ccc3n2[B-](F)(F)[N+]2=C(c4cccs4)C=CC2=C3)cc1)NCCNC[C@H](O)COc1cccc2ccccc12
Outgoing: 8.86

Incoming: Return value of pKd for input O=C(CCCCCNC(=O)COc1ccc(/C=C/c2ccc3n2[B-](F)(F)[N+]2=C(c4cccs4)C=CC2=C3)cc1)NCCCCCCCCNC[C@H](O)COc1cccc2ccccc12 , no commentary.
Outgoing: 8.15

Incoming: Provide one value: measured pKd of C=CCc1ccccc1OC[C@@H](O)CNCCNC(=O)CCCCCNC(=O)COc1ccc(/C=C/c2ccc3n2[B-](F)(F)[N+]2=C(c4cccs4)C=CC2=C3)cc1
Outgoing: 8.54

---

- System under test: Beta-1 adrenergic receptor (Homo sapiens)
- Method notes: Antagonist activity at human beta-1 adrenergic receptor site 1 expressed in cimeterol-stimulated CHO-K1 cells assessed as CRE-SPAP level by […]
- Format: functional, cell-based
Outcome measure: pKd
Note: pKd values are expressed as the negative base-10 logarithm of concentration in M.

Incoming: Input O=C(CCCCCNC(=O)COc1ccc(/C=C/c2ccc3n2[B-](F)(F)[N+]2=C(c4cccs4)C=CC2=C3)cc1)NCCOCCOCCNCC(O)COc1cccc2[nH]ccc12 (racemic) , output reported pKd.
Outgoing: 7.42

Incoming: Consider the compound O=C(CCCCCNC(=O)COc1ccc(/C=C/c2ccc3n2[B-](F)(F)[N+]2=C(c4cccs4)C=CC2=C3)cc1)NCCOCCOCCNCC(O)COc1cccc2ccccc12 (racemic) and give its recorded pKd.
Outgoing: 7.38

Incoming: Give pKd for the following compound: C=CCc1ccccc1OC[C@@H](O)CNCCOCCOCCNC(=O)CCCCCNC(=O)COc1ccc(/C=C/c2ccc3n2[B-](F)(F)[N+]2=C(c4cccs4)C=CC2=C3)cc1
Outgoing: 8.12

Incoming: // Input: C=CCc1ccccc1OC[C@@H](O)CNCCNC(=O)CCCCCNC(=O)COc1ccc(/C=C/c2ccc3n2[B-](F)(F)[N+]2=C(c4cccs4)C=CC2=C3)cc1 . Output its pKd only.
Outgoing: 7.33

---

- System under test: Beta-1 adrenergic receptor (Homo sapiens, UniProt P08588)
- Sequence (P08588 whole entry): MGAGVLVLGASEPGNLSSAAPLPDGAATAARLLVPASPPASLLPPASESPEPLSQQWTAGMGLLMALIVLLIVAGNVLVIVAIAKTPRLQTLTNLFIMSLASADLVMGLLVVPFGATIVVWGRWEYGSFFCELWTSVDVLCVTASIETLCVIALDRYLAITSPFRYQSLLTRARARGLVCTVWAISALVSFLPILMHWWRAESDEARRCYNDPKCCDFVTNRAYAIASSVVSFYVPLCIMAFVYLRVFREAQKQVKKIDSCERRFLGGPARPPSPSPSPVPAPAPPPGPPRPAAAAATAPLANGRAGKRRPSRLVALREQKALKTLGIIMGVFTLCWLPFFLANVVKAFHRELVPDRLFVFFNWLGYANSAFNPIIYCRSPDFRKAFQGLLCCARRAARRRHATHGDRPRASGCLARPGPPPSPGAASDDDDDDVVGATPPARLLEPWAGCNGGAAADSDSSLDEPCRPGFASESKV
- Method notes: Antagonist activity at human beta-1 adrenergic receptor site 2 expressed in CGP 12177-stimulated CHO-K1 cells assessed as CRE-SPAP level by […]
Give measured Kd for each item. Keep answers brief.

Incoming: Name the recorded Kd of the item O=C(CCCCCNC(=O)COc1ccc(/C=C/c2ccc3n2[B-](F)(F)[N+]2=C(c4cccs4)C=CC2=C3)cc1)NCCCCCCCCNCC(O)COc1cccc2ccccc12 (racemic) in your answer.
Outgoing: < 1000 nM

Incoming: Look up and report measured Kd for this entry: O=C(CCCCCNC(=O)COc1ccc(/C=C/c2ccc3n2[B-](F)(F)[N+]2=C(c4cccs4)C=CC2=C3)cc1)NCCNCC(O)COc1cccc2[nH]ccc12 (racemic)
Outgoing: < 1000 nM

Incoming: Provide measured Kd value, entry: O=C(CCCCCNC(=O)COc1ccc(/C=C/c2ccc3n2[B-](F)(F)[N+]2=C(c4cccs4)C=CC2=C3)cc1)NCCOCCOCCNCC(O)COc1cccc2[nH]ccc12 (racemic)
Outgoing: < 1000 nM

---

- System under test: Beta-2 adrenergic receptor (Homo sapiens, UniProt P07550)
- Sequence (P07550 whole entry): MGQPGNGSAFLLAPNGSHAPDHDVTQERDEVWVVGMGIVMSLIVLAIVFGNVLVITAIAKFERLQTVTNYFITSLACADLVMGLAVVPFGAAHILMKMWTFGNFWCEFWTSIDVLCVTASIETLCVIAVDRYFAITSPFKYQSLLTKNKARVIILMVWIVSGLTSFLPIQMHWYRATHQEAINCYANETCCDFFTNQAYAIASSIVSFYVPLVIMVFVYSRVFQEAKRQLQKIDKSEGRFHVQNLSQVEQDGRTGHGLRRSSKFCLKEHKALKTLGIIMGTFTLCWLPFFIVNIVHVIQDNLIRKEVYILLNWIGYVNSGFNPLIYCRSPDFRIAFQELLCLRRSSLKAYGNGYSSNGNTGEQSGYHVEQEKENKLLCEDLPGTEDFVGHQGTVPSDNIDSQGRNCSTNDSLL
- Method notes: Antagonist activity at human beta-2 adrenergic receptor expressed in salbutamol-stimulated CHO-K1 cells assessed as CRE-SPAP level by […]
- Assay type: functional, cell-based
Outcome measure: pKd
Remember, pKd is on a log scale: it is -log10 of the molar concentration.

Incoming: Report value only: pKd, Beta-2 adrenergic receptor (Homo sapiens, UniProt P07550), C=CCc1ccccc1OCC(O)CNCCOCCOCCNC(=O)CCCCCNC(=O)COc1ccc(/C=C/c2ccc3n2[B-](F)(F)[N+]2=C(c4cccs4)C=CC2=C3)cc1 (racemic)
Outgoing: 9.21

Incoming: Please indicate recorded pKd of O=C(CCCCCNC(=O)COc1ccc(/C=C/c2ccc3n2[B-](F)(F)[N+]2=C(c4cccs4)C=CC2=C3)cc1)NCCCCNCC(O)COc1cccc2ccccc12 (racemic) measured with Beta-2 adrenergic receptor (Homo sapiens, UniProt P07550).
Outgoing: 9.13

Incoming: Would you please give the reported pKd of C=CCc1ccccc1OC[C@@H](O)CNCCNC(=O)CCCCCNC(=O)COc1ccc(/C=C/c2ccc3n2[B-](F)(F)[N+]2=C(c4cccs4)C=CC2=C3)cc1 with Beta-2 adrenergic receptor (Homo sapiens, UniProt P07550)?
Outgoing: 8.74
